# experiment-notes: qHTS assay for cell viability of HEK293 cells (AID 743288); also: potency is read from the fitted curve at half-maximal effect; nearly all actives have a fitted effect of over 50% in size
# measurement-context: ATP luminescence (CellTiter-Glo), 18 h
Inconclusive results are not listed. The source made the active and inactive calls. Calls follow the shape of the dose curve; as a rule, active = well fitted cell-killing curve with a large enough effect; inconclusive = small, poorly fitted or top-dose-only effect, or effect the other way; inactive = flat fitted curve, though single readings scatter.
Exercise: for every item that follows, state its recorded Potency.

{"columns": ["molecule", "Potency"],
 "data": [
  ["[Cl-].[Cl-].[Hg+2]", "44.7 µM (active)"],
  ["O=[N+]([O-])C(Br)(CO)CO", "50.1 µM (active)"],
  ["O=C1C2CC=CCC2C(=O)N1SC(Cl)(Cl)Cl (centres undefined)", "10 µM (active)"]
]}

Query :: Sample C[CH2][Hg][S]c1ccccc1C(=O)O — what was its Potency?
Result :: 50.1 µM (active)

---

# System: HaCat
# experiment-notes: Cytotoxic Profiling of Annotated Libraries Using Quantitative High-Throughput Screening (AID 1296008); also: % is scaled to controls: 0 for no effect and ±100 for the full control effect; nearly all actives have a fitted effect of over 60% in size
# measurement-context: Five cell lines viability, CellTiter-Glo ATP luminescence, 48-72 h; stronger effect = lower value
Results filed as inconclusive are left out.
metric: max response (%)
Numbers only, in %.

Example cases with answers are listed next.
{"columns": ["compound", "max response [%]"],
 "data": [
  ["CN1C(=O)c2ccccc2NC(=O)C1Cc1ccccc1 (stereo not given)", 2.89],
  ["CC(N)Cc1c[nH]c2ccccc12 (stereo not given)", -7.15],
  ["CC(=O)OC1CC(O)C2(C)C(CC(OC(C)=O)C3(C)C2CCC2(C)C(c4ccoc4)C(=O)C4OC423)C1(C)C (stereo not given)", -22.5],
  ["C=C[C@H]1[C@H](O[C@@H]2O[C@H](CO)[C@@H](O)[C@H](O)[C@H]2O)OC=C2C(=O)OCC[C@H]21", 1.24],
  ["COC(=O)C1(C)CCC(O)C2(C)c3c(O)cc(C(C)C)cc3C(O)C(OC(C)=O)C12 (stereo not given)", -12.7],
  ["Clc1ccc(N2C[C@H]3CC[C@@H](C2)N3)nn1", -0.574],
  ["COc1cc(C)[nH]c(=O)c1CNC(=O)c1c(C)n([C@H](C)C2CCOCC2)c2ccccc12", 4.27],
  ["COC(=O)N1CCN(C(=O)Cc2ccc(Cl)c(Cl)c2)[C@@H](CN2CCCC2)C1", -8.83]
]}

Please give max response, item by item, for the list that follows.
1. C/C=C(\C)C(=O)O[C@H]1[C@H](OC(C)=O)[C@]2(CO)[C@H](O)[C@H](O)[C@]3(C)C(=CCC4[C@@]5(C)CC[C@H](O[C@@H]6O[C@H](C(=O)O)[C@@H](O)[C@H](O[C@@H]7OC[C@H](O)[C@H](O[C@@H]8OC[C@H](O)[C@H](O)[C@H]8O)[C@H]7O)[C@H]6O[C@@H]6O[C@H](CO)[C@@H](O)[C@H](O)[C@H]6O)C(C)(C)C5CC[C@]43C)[C@@H]2CC1(C)C (stereo not given in full)
2. C[C@]12CC[C@@H](O)C[C@H]1CC[C@@H]1[C@@H]2CC[C@]2(C)C(=O)CC[C@@H]12
3. CCN1CC2(COC)C3[C@@H](OC)C4C1C3(C1C[C@]3(O)[C@H](OC(=O)c5ccccc5)C1[C@]4(OC(C)=O)[C@@H](O)[C@@H]3OC)[C@H](OC)C[C@H]2O (stereo not given in full)
4. CC1C/C=C/C(O)C(O)CC/C=C/c2cc(O)cc(O)c2C(=O)O1 (stereo not given)
5. CN1C(=O)N(c2ccc(C#N)c(C(F)(F)F)c2)C(=O)[C@]1(CO)c1ccccc1

Result ::
1: 3.31; 2: -0.89; 3: 3.92; 4: -2.35; 5: 1.18

Please give max response, item by item, for the list that follows.
1. Cc1cn(C[C@H](N)C(=O)O)c(=O)n(Cc2cc(-c3ccccc3)sc2C(=O)O)c1=O
2. CC1=C2C[C@H]3[C@@H](CC=C4C[C@@H](O)CC[C@@]43C)[C@@H]2CC[C@]12O[C@@H]1C[C@H](C)CN[C@H]1[C@H]2C

Result ::
1: -2.49; 2: 3.98
